Reference source: patent US5659049A

Test system: PLA2
Test: Anti-PLA2 activity (comparative Table 6)
Assay type: biochemical
Details: nd = not detectable at ≤ 500 uM; read-out: IC-50 Anti-PLA2 Activity
Decision: IC50 beneath 7 µM gives y; IC50 meeting or exceeding 7 µM gives n.

Answered cases to consult:
{"columns": ["Molecule", "Group"],
 "data": [
  ["CCCCCCC(C/C=C\\CCCCCCCC(=O)O)OC(=O)/C=C/C(=O)O (centres unmarked)", "n"],
  ["CCCCCCCC/C=C\\CCCCCCCCOC(=O)CCCCCCC/C=C\\CC(CCCCCC)OC(=O)/C=C/C(=O)O (centres unmarked)", "y"],
  ["CCCCCCCC/C=C\\CCCCCCCCOC(=O)CCCCCCC/C=C\\CC(CCCCCC)OC(=O)/C=C\\C(=O)O (centres unmarked)", "y"],
  ["CCCCC/C=C\\C/C=C\\CCCCCCCC(=O)OC(C/C=C\\CCCCCCCC(=O)O)CCCCCC (centres unmarked)", "n"],
  ["CCCCC/C=C\\C/C=C\\CCCCCCCC(=O)OCC(N)(COC(=O)CCCCCCC/C=C\\C/C=C\\CCCCC)COC(=O)CCCCCCC/C=C\\C/C=C\\CCCCC", "y"]
]}

Now, please, on to the next molecule.
Task: Is IC50 strictly under 7 µM for the entry CCCCCCC(O)C/C=C\CCCCCCCC(=O)OC(C/C=C\CCCCCCCC(=O)O)CCCCCC (centres unmarked) ?
Result: y
